- experimentDescription: Biological distribution in bodies of normal mice
- Format: in vivo, mice (ICR)
- conditionsUsed: caudal vein injection, 10 min
So I've got a bunch of compounds here, and I need their Blood values.
One number for each entry, in % ID/g.

For every item below, please supply its Blood.
1. COc1ccc(OCc2ccc(OCC[18F])cc2)cc1 [[^18F]44a]
2. COc1ccc(COc2ccc(OCCOCCOCC[18F])cc2)cc1 [[^18F] 53b]
3. COc1ccc(COc2ccc(OCC[18F])cc2)cc1 [[^18F] 53a]
4. CN(C)c1ccc(OCc2ccc([125I])cc2)cc1 [[^125I]22]
5. COc1ccc(OCc2ccc([125I])cc2)cc1 [[^125I]4]

Reply |
[3.86, 4.14, 4.61, 2.46, 3.32]

###

Give measured Thyroid for each item. Keep answers brief.
- experimentDescription: Biological distribution in bodies of normal mice
- Type: in vivo, mice (ICR)
- conditionsUsed: caudal vein injection, 30 min
- Text: Through in-vivo distribution experiments, pharmacokinetic features, especially initial bran intake and brain removal situations of ^18F or ^125I labeled compounds in the bodies of mice are studied. […] Data are expressed in radioactive percentage dosage per organ (% ID/organ) and radioactive percentage dosage per gram of organ (% ID/g).

Some compounds with known Thyroid results, for comparison:
>>> reportedresult("CN(C)c1ccc(-c2cn3cc([125I])ccc3n2)cc1 [[^125I]IMPY, reference compound]")
"0.22 ± 0.08 % ID/organ"
>>> reportedresult("COc1ccc(OCc2ccc([125I])cc2)cc1 [[^125I]4]")
"0.08 ± 0.01 % ID/organ"
>>> reportedresult("FCCOc1ccc(COc2ccc([125I])cc2)cc1 [[^125I]35a]")
"0.19 ± 0.04 % ID/organ"
>>> reportedresult("COc1ccc(COc2ccc([125I])cc2)cc1 [[^125I]24]")
"0.17 ± 0.03 % ID/organ"
>>> reportedresult("FCCOc1ccc(OCc2ccc([125I])cc2)cc1 [[^125I]31a]")
"0.12 ± 0.01 % ID/organ"

Kindly consider the entry below.
Lab note: CN(C)c1ccc(OCc2ccc([125I])cc2)cc1 [[^125I]22] gave Thyroid of 0.16 ± 0.04 % ID/organ

###

- measurementTarget: Aβ1-42 aggregates (Homo sapiens)
- Construct: Preparing receptor Aβ1-42 proteins according to the existing method
- experimentDescription: In-vitro competitive binding experiments (Ki determination) with Aβ1-42 aggregates
endpointLabel: Ki (nM)
Give bare numbers, in nM.

Answered examples (6):
>>> reportedresult("Oc1ccc(OCc2ccc(I)cc2)cc1")
134
>>> reportedresult("Nc1ccccc1OCc1ccc(I)cc1")
1220
>>> reportedresult("Nc1cccc(OCc2ccc(I)cc2)c1")
1810
>>> reportedresult("FCCOc1ccc(COc2ccc(I)cc2)cc1 [Compound 35a]")
23
>>> reportedresult("COc1ccc(OCc2ccc(I)cc2)cc1")
28.7
>>> reportedresult("Ic1ccc(COc2ccccc2)cc1")
93.9

The following compounds each have a reported value; give each one's Ki.
1. CN(C)c1ccc(CNc2ccc(I)cc2)cc1
2. CNc1cccc(OCc2ccc(I)cc2)c1

Reply |
[124, 702]

###

- measurementTarget: Aβ1-42 aggregates (Homo sapiens)
- Construct: Preparing receptor Aβ1-42 proteins according to the existing method
- experimentDescription: In-vitro competitive binding experiments (Ki determination) with Aβ1-42 aggregates
For each record, write down the corresponding Ki.
Give bare numbers, in nM.

Sample answers from the record:
>>> reportedresult("CC(C)(C)c1ccc(OCc2ccc(I)cc2)cc1")
139
>>> reportedresult("COc1cccc(OCc2ccc(I)cc2)c1")
154

Please find the next compound below.
Here Oc1cccc(OCc2ccc(I)cc2)c1 was tested on Aβ1-42 aggregates (Homo sapiens), and its Ki came to 456

###

- experimentDescription: Biological distribution in bodies of normal mice
- Format: in vivo, mice (ICR)
- conditionsUsed: caudal vein injection, 60 min
Kindly state Brain for each of the entries shown.
One number for each entry, in % ID/g.

Previously resolved entries follow.
>>> reportedresult("CN(C)c1ccc(OCc2ccc([125I])cc2)cc1 [[^125I]22]")
0.49
>>> reportedresult("FCCOc1ccc(COc2ccc([125I])cc2)cc1 [[^125I]35a]")
0.37
>>> reportedresult("COc1ccc(COc2ccc(OCCOCCOCC[18F])cc2)cc1 [[^18F] 53b]")
1.07

Please look at the following compound next.
Entry COc1ccc(COc2ccc(OCC[18F])cc2)cc1 [[^18F] 53a] ; Brain = 1.30

###

- experimentDescription: Biological distribution in bodies of normal mice
- Format: in vivo, mice (ICR)
- conditionsUsed: caudal vein injection, 10 min
Please respond with reported Thyroid for every item in the list.
Give bare numbers, in % ID/organ.

Example results:
>>> reportedresult("FCCOc1ccc(OCc2ccc([125I])cc2)cc1 [[^125I]31a]")
0.09
>>> reportedresult("CN(C)c1ccc(OCc2ccc([125I])cc2)cc1 [[^125I]22]")
0.12
>>> reportedresult("CN(C)c1ccc(-c2cn3cc([125I])ccc3n2)cc1 [[^125I]IMPY, reference compound]")
0.09

I would be grateful if you could provide Thyroid for each of the following entries.
1. COc1ccc(COc2ccc([125I])cc2)cc1 [[^125I]24]
2. FCCOc1ccc(COc2ccc([125I])cc2)cc1 [[^125I]35a]
3. COc1ccc(OCc2ccc([125I])cc2)cc1 [[^125I]4]

Reply |
[0.07, 0.13, 0.12]

###

- experimentDescription: Biological distribution in bodies of normal mice
- Type: in vivo, mice (ICR)
- conditionsUsed: caudal vein injection, 60 min
Returns: string. Value is True if measured Thyroid is below 0.3 % ID/organ, and False if it is greater than or equal to it.

Ask | Take the compound COc1ccc(COc2ccc([125I])cc2)cc1 [[^125I]24] and say whether its Thyroid is less than 0.3 % ID/organ.
Reply | True

###

- experimentDescription: Biological distribution in bodies of normal mice
- Assay type: in vivo, mice (ICR)
- conditionsUsed: caudal vein injection, 10 min
Give measured Brain for each item. Keep answers brief.
Give bare numbers, in % ID/g.

>>> reportedresult("CN(C)c1ccc(OCc2ccc([125I])cc2)cc1 [[^125I]22]")
3.26
>>> reportedresult("COc1ccc(COc2ccc([125I])cc2)cc1 [[^125I]24]")
2.11
>>> reportedresult("COc1ccc(OCc2ccc(OCC[18F])cc2)cc1 [[^18F]44a]")
3.32
>>> reportedresult("FCCOc1ccc(COc2ccc([125I])cc2)cc1 [[^125I]35a]")
2.28
>>> reportedresult("CN(C)c1ccc(-c2cn3cc([125I])ccc3n2)cc1 [[^125I]IMPY, reference compound]")
1.80
>>> reportedresult("FCCOc1ccc(OCc2ccc([125I])cc2)cc1 [[^125I]31a]")
2.73

For each listed entry, give its Brain.
1. COc1ccc(COc2ccc(OCCOCCOCC[18F])cc2)cc1 [[^18F] 53b]
2. COc1ccc(COc2ccc(OCC[18F])cc2)cc1 [[^18F] 53a]

Reply |
1. 2.52
2. 2.77

Entry under test: COc1ccc(OCc2ccc([125I])cc2)cc1 [[^125I]4] . Its Brain was 3.54

###

- experimentDescription: Biological distribution in bodies of normal mice
- Assay type: in vivo, mice (ICR)
- conditionsUsed: caudal vein injection, 60 min
Rule for this label: criterion met means Brain is less than 0.5 % ID/g; criterion not met means Brain is at least 0.5 % ID/g.

A selection of reference data follows.
>>> grouplabel("COc1ccc(COc2ccc([125I])cc2)cc1 [[^125I]24]")
"criterion met"
>>> grouplabel("FCCOc1ccc(OCc2ccc([125I])cc2)cc1 [[^125I]31a]")
"criterion not met"
>>> grouplabel("COc1ccc(OCc2ccc(OCC[18F])cc2)cc1 [[^18F]44a]")
"criterion not met"

Ask | Consider COc1ccc(OCc2ccc([125I])cc2)cc1 [[^125I]4] . Does its Brain lie strictly below 0.5 % ID/g?
Reply | criterion met

Ask | Regarding CN(C)c1ccc(-c2cn3cc([125I])ccc3n2)cc1 [[^125I]IMPY, reference compound] , kindly confirm whether its Brain is beneath 0.5 % ID/g.
Reply | criterion met

###

- measurementTarget: Aβ1-42 aggregates (Homo sapiens, UniProt P05067)
- Construct: Preparing receptor Aβ1-42 proteins according to the existing method
- Sequence (P05067 672-713 limits assumed): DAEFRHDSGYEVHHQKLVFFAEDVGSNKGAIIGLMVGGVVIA
- experimentDescription: In-vitro competitive binding experiments (Ki determination) with Aβ1-42 aggregates
Field: Ki. Provide a value for each of the compounds that follow.
Numbers only, in nM.

Some solved cases for reference:
>>> reportedresult("COc1ccc(SCc2ccc(I)cc2)cc1")
627
>>> reportedresult("Brc1ccc(OCc2ccc(I)cc2)cc1")
14.1
>>> reportedresult("COc1ccc(OCc2ccc(OCCF)cc2)cc1 [Compound 44a]")
167

# batch: return Ki for each of the 4 compounds below
1. Oc1ccccc1OCc1ccc(I)cc1
2. Nc1ccc(OCc2ccc(I)cc2)cc1
3. COc1ccc(COc2ccc(OCCF)cc2)cc1 [Compound 53a]
4. FCCOc1ccc(OCc2ccc(I)cc2)cc1 [Compound 31a]

Reply |
1. 3350
2. 484
3. 465
4. 24.1

Your task in this section: give Ki for each listed record.
1. CN(C)c1ccc(OCc2ccc(OCCF)cc2)cc1
2. Ic1ccc(COc2ccc(I)cc2)cc1

Reply |
[23, 25.9]
